- TARGET_DESC: NLRP3 (Homo sapiens, UniProt Q96P20)
- Sequence (Q96P20 whole entry): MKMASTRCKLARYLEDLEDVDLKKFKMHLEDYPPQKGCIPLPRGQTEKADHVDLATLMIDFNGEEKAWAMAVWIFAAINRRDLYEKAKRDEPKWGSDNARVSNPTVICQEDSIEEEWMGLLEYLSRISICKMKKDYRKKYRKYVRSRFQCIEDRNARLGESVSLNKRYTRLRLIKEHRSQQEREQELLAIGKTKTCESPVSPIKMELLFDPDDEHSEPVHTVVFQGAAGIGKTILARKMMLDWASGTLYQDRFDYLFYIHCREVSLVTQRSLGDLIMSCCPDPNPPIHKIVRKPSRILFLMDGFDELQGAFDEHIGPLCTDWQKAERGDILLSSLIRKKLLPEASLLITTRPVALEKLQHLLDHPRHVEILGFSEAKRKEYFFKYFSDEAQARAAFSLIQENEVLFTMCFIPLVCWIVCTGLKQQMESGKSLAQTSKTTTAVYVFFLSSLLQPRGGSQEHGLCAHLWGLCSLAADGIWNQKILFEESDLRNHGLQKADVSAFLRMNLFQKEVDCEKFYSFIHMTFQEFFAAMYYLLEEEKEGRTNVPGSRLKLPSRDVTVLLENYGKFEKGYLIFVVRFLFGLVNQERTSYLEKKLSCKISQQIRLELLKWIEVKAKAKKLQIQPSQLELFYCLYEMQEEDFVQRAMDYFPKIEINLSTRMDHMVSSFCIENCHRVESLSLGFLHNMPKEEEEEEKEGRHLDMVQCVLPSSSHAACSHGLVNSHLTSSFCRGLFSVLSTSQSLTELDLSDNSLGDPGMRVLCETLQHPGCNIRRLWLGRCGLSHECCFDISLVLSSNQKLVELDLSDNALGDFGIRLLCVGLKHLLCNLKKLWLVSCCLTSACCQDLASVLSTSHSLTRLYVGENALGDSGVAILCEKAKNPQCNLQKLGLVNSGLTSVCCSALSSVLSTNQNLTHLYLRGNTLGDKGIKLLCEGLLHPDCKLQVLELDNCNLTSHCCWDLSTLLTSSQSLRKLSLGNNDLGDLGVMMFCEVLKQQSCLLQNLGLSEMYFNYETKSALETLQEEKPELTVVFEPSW
- MEASUREMENT_PROTOCOL: THP-1 cells pyroptosis assay
- Format: cell-based
- Set-up: Seed THP-1 cells (25,000 cells/well) containing 1.0 μg/ml LPS; host or cells: THP-1
- CONDITIONS: LPS 1.0 μg/ml, nigericin 5 μM, resazurin readout, 10 μM top dose (Example 2: top dose of 30 μM)
pIC50: −log10 of the molar value.
ENDPOINT: pIC50

Known pIC50 results, listed for orientation:
O=S(=O)(c1cnn(CCO)c1)c1nnc(Nc2c3c(cc4c2CCC4)CCC3)[nH]1 [Example 335]	≥ 5.30
Cc1cc2c(c(Nc3nnc(S(C)(=O)=O)[nH]3)c1-c1ccnc(OC3CCOCC3)c1)CCC2 [Example 364]	≥ 5.30
CN1CCC(NS(=O)(=O)c2nnc(Nc3c4c(cc5c3CCC5)CCC4)[nH]2)CC1 [Example 102]	≥ 5.00

## Input Item CCNC[C@H]1CCN(S(=O)(=O)c2nnc(Nc3c4c(cc5c3CCC5)CCC4)[nH]2)C1 [Example 308] with NLRP3 (Homo sapiens, UniProt Q96P20) - pIC50?
## Output ≥ 6.30

## Input Provide value of pIC50 for this record tested with NLRP3 (Homo sapiens, UniProt Q96P20): Cc1cc2c(c(Nc3nnc(S(C)(=O)=O)[nH]3)c1-c1ccnc(OCC3CCCN(C)C3)c1)CCC2 (stereo not shown) [Example 362]
## Output ≥ 5.30

These entries and their values trace back to patent US20210261512A1.
